- target.of.assay: NPSR1-A (Homo sapiens, UniProt Q6W5P4, N107I)
- Construct: expressed in transfected cells; host or cells: HEK-293, transient transfection with pCMV-NPSR1-A
- Sequence (Q6W5P4 whole entry N107I): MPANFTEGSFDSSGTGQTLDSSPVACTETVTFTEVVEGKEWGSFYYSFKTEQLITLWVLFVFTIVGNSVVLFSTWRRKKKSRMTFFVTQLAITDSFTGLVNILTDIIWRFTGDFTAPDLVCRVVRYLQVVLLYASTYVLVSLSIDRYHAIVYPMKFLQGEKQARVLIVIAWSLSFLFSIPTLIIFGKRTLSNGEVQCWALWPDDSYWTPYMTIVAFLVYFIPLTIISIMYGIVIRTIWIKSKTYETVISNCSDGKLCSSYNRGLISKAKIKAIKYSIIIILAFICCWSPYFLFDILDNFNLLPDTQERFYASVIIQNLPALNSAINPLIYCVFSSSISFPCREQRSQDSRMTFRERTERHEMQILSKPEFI
- test.summary: cAMP accumulation (EIA), HEK-293 NPSR1-A
- Type: cell-based
- particulars: 0.001-10 μM NPS, 20 min, 200 μM 3-isobutyl-1-methylxanthine 40 min before, six replicas, mean ± SEM
No end group written: not given here.
readout.name: pEC50
A value of pEC50 is the negative decimal logarithm of a concentration given in moles per litre.

Data point: SFRNGVGTGMKKTSFQRAKS [NPS, neuropeptide S] ; pEC50 = 8.35

Origin of the recorded values: paper PMC3142248
